Task for the reader: assign each of the following variants its reported normalized RNA/DNA level with ligand (log10).
B1: library; a variant is named by its letters at N, in order (parent)
chain: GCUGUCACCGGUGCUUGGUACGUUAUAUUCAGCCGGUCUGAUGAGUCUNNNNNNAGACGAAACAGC

Variants of: B1
Assay: normalized RNA/DNA level with ligand (relative to sTRSVctl = 100) (log10 (% of sTRSVctl)); HEK293T overexpressing SLC46A1; ligand concentration (+) RNA-Seq: 6 mM; higher = less ribozyme self-cleavage, higher mRNA level
Conditions: with (6R,S)-folinic acid; ligand present: yes
Give bare numbers.

{"columns": ["changes", "readout_number"],
 "data": [
  ["GGCACU", 2.02]
]}

Kindly give each listed record's normalized RNA/DNA level with ligand (log10).
1. CGCUCC
2. UUCCGG
3. GAGUUC
4. UCCGCC

Reply |
2.06
2.03
2.03
2.01

Quick batch: normalized RNA/DNA level with ligand (log10) for everything below.
1. AAAAGC
2. CACGGG
3. UACGGC
4. ACCUUG
5. CAGACA
6. UCUAGA
7. AUAAAG

Reply |
[2.03, 1.99, 2.05, 2, 1.98, 2.04, 2]

Fill in normalized RNA/DNA level with ligand (log10) for each of the 3 variants listed.
1. GGGCAA
2. AAGAGA
3. UGUUGC

Reply |
2.05
2.03
2.06
